test: in vivo; conditions: female, rat, in vivo, iv, 2 mg/kg
Readout Name: MRT last (h)

>>> assay_value("CN1[C@@H](CC(=O)c2ccccc2)CCC[C@H]1C[C@H](O)c1ccccc1 [Lobeline]")
1.72
>>> assay_value("CN1[C@H](CC(=O)c2ccccc2)CCC[C@H]1C[C@H](O)c1ccccc1 (single isomer, unassigned; epimer 2) [Epimer]")
1.6

###

assay: in vivo; settings: male, rat, in vivo, sc, 3 mg/kg
This section presents compounds with their documented MRT last values.
Readout Name: MRT last (h)

>>> assay_value("CN1[C@H](CC(=O)c2ccccc2)CCC[C@H]1C[C@H](O)c1ccccc1 (single isomer, unassigned; epimer 2) [Epimer]")
1.45
>>> assay_value("CN1[C@@H](CC(=O)c2ccccc2)CCC[C@H]1C[C@H](O)c1ccccc1")
1.35

###

Assay: in vivo
Settings: female, rat, in vivo, sc, 3 mg/kg
Protocol: Here, serial doses of lobeline were administered to male and female rats intravenously, subcutaneously or orally, and the pharmacokinetic profiles of the parent lobeline and its epimer were monitored in plasma.
Readout Name: Tmax (min)

>>> assay_value("CN1[C@H](CC(=O)c2ccccc2)CCC[C@H]1C[C@H](O)c1ccccc1 (single isomer, unassigned; epimer 2) [Epimer]")
30
>>> assay_value("CN1[C@@H](CC(=O)c2ccccc2)CCC[C@H]1C[C@H](O)c1ccccc1")
15

###

assay: in vivo; details: female, rat, in vivo, po, 20 mg/kg
This section presents compounds with their documented MRT last values.
Readout Name: MRT last (h)

>>> assay_value("CN1[C@H](CC(=O)c2ccccc2)CCC[C@H]1C[C@H](O)c1ccccc1 (single isomer, unassigned; epimer 2) [Epimer]")
2.16
>>> assay_value("CN1[C@@H](CC(=O)c2ccccc2)CCC[C@H]1C[C@H](O)c1ccccc1")
1.92

###

experiment: in vivo; details: male, rat, in vivo, iv, 2 mg/kg
Readout Name: MRT last (h)

>>> assay_value("CN1[C@@H](CC(=O)c2ccccc2)CCC[C@H]1C[C@H](O)c1ccccc1")
1.54
>>> assay_value("CN1[C@H](CC(=O)c2ccccc2)CCC[C@H]1C[C@H](O)c1ccccc1 (single isomer, unassigned; epimer 2) [Epimer]")
1.51

###

assay: in vivo; details: male, rat, in vivo, po, 20 mg/kg
Readout Name: AUC(0-t)

>>> assay_value("CN1[C@@H](CC(=O)c2ccccc2)CCC[C@H]1C[C@H](O)c1ccccc1 [Lobeline]")
"104 ng·h/mL"
>>> assay_value("CN1[C@H](CC(=O)c2ccccc2)CCC[C@H]1C[C@H](O)c1ccccc1 (single isomer, unassigned; epimer 2) [Epimer]")
"54 ng·h/mL"

###

assay: in vivo; conditions: female, rat, in vivo, iv, 2 mg/kg
Readout Name: clearance (mL/min/kg)

>>> assay_value("CN1[C@@H](CC(=O)c2ccccc2)CCC[C@H]1C[C@H](O)c1ccccc1 [Lobeline]")
0.248
>>> assay_value("CN1[C@H](CC(=O)c2ccccc2)CCC[C@H]1C[C@H](O)c1ccccc1 (single isomer, unassigned; epimer 2) [Epimer]")
0.433

###

Assay: in vivo
Conditions: female, rat, in vivo, sc, 3 mg/kg
Experimental: Here, serial doses of lobeline were administered to male and female rats intravenously, subcutaneously or orally, and the pharmacokinetic profiles of the parent lobeline and its epimer were monitored in plasma.
This section presents molecules with their documented half-life values.
Readout Name: half-life (h)

>>> assay_value("CN1[C@H](CC(=O)c2ccccc2)CCC[C@H]1C[C@H](O)c1ccccc1 (single isomer, unassigned; epimer 2) [Epimer]")
1.11
>>> assay_value("CN1[C@@H](CC(=O)c2ccccc2)CCC[C@H]1C[C@H](O)c1ccccc1")
1.14
